Origin of measurements: PubChem BioAssay AID651660

target: DNA repair protein RAD52 homolog (Homo sapiens) (UniProt P43351); test: inhibition of RAD52-mediated strand annealing – biochemical, FRET, single point, primary screen (AID 651660); settings: Recombinant RAD52 ssDNA annealing, FRET fluorescence, 30 min; at 18.7 µM; stronger effect = higher value;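 further: 0% = median of neutral control wells and 100% = median of positive control wells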
Sequence (P43351 whole entry, looked up): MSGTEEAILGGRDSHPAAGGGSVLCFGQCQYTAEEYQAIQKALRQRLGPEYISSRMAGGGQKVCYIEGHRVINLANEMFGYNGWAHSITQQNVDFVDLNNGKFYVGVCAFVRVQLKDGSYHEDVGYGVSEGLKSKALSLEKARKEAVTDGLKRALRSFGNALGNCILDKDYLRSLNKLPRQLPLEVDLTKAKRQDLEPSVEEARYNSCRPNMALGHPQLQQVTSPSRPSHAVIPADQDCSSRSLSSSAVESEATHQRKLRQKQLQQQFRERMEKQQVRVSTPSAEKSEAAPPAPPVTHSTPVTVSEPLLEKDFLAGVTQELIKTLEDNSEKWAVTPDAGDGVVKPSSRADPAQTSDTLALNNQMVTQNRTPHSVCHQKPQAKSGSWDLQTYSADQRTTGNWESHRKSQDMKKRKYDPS
The campaign covered roughly 1,900 compounds. About 15 (0.8%) were called active. The entries come from a sample that favours actives as a whole.
inhibition: recorded values

In the examples that follow, each entry is paired with its recorded inhibition.
| compound | assay-system | inhibition |
| --- | --- | --- |
| COc1ccc(C2CC(c3ccc([N+](=O)[O-])cc3)=NN2C(=O)c2ccccc2)cc1OC (stereo not given) | DNA repair protein RAD52 homolog (Homo sapiens) (UniProt P43351) | -4.95% (inactive) |
| CC(=O)c1cn(C)c(=O)[nH]c1=O | DNA repair protein RAD52 homolog (Homo sapiens) (UniProt P43351) | -3.65% (inactive) |
| C[C@H](NC(=O)OC(C)(C)C)C(=O)NCC1CCC(C(=O)O)CC1 (stereo not given in full) | DNA repair protein RAD52 homolog (Homo sapiens) (UniProt P43351) | -0.108% (inactive) |
| CCOC(=O)c1cnc2ccccc2c1NCCO | DNA repair protein RAD52 homolog (Homo sapiens) (UniProt P43351) | 10.9% (inactive) |
| CC(=O)N(CCC(Cc1ccccc1)c1ccc2c(c1)OCO2)Cc1ccc(Cl)cc1 (stereo not given) | DNA repair protein RAD52 homolog (Homo sapiens) (UniProt P43351) | 16.3% (inactive) |
| CCn1c(N2CCN(CC(=O)c3c(C)n(C)c4ccc(OC)cc34)CC2)nc2c1c(=O)[nH]c(=O)n2C | DNA repair protein RAD52 homolog (Homo sapiens) (UniProt P43351) | -1.17% (inactive) |
| Cc1ccc2c(c1)C(O)(C1COC(C)(C)CC1=O)C(=O)N2C (stereo not given) | DNA repair protein RAD52 homolog (Homo sapiens) (UniProt P43351) | -1% (inactive) |
| O=C(OCCNC(=O)c1ccc2ccccc2n1)c1ccc(F)cc1 | DNA repair protein RAD52 homolog (Homo sapiens) (UniProt P43351) | 3.05% (inactive) |
| COc1ccc2c(c1)[N+](C)(C)C(C)(C)C=C2C | DNA repair protein RAD52 homolog (Homo sapiens) (UniProt P43351) | 2.05% (inactive) |
| C[C@]12CC[C@@H]3c4ccc(O)cc4CC[C@H]3[C@@H]1C[C@@H](O)[C@@H]2O[C@@H]1O[C@H](C(=O)O)[C@@H](O)[C@H](O)[C@H]1O | DNA repair protein RAD52 homolog (Homo sapiens) (UniProt P43351) | 5.26% (inactive) |

Item `CCOC(=O)c1c(O)c2c([nH]c1=O)CCCC2` with DNA repair protein RAD52 homolog (Homo sapiens) (UniProt P43351) - inhibition?
2.81% (inactive)

Request body: readout inhibition, system DNA repair protein RAD52 homolog (Homo sapiens) (UniProt P43351), query Cc1ccc2nc(C)c3c(c2c1)OC(C(C)(Cl)Br)C3 (stereo not given) . Return the value.
3.5% (inactive)

Requested read-out inhibition, target or system DNA repair protein RAD52 homolog (Homo sapiens) (UniProt P43351), entry `O=C(/C=C/c1c[nH]c2ccccc12)c1cccc2ccccc12`
-25.7% (inactive)

Query the reported inhibition for DNA repair protein RAD52 homolog (Homo sapiens) (UniProt P43351); item: `COc1cccc(=O)c2c(C)n(CC(=O)c3ccccc3)c(C)c12`
-138% (inactive)

Notebook: pull reported inhibition for DNA repair protein RAD52 homolog (Homo sapiens) (UniProt P43351), entry `N/C(=N\OC(=O)/C=C/c1ccccc1)c1ccc(Br)cc1`
-5.01% (inactive)

Give DNA repair protein RAD52 homolog (Homo sapiens) (UniProt P43351) inhibition for C/C(=N\N=C1\NC(=O)C(CC(=O)Nc2ccc(Cl)cc2)S1)c1ccco1 (stereo not given)
-15.6% (inactive)

Missing value: inhibition, DNA repair protein RAD52 homolog (Homo sapiens) (UniProt P43351), entry CN(Cc1ccccc1)CC(O)COc1ccc(CNCc2cccnc2)cc1 (stereo not given) . Fill in?
25.5% (inactive)

API: value(readout=inhibition, system=DNA repair protein RAD52 homolog (Homo sapiens) (UniProt P43351)) for record `Cc1ccc2[nH]c(=O)c(Cc3ccccc3)c(O)c2c1`
-9.59% (inactive)

Return inhibition measured with DNA repair protein RAD52 homolog (Homo sapiens) (UniProt P43351) given this compound: `O=[N+]([O-])c1cc(/C=N/n2cnnc2)ccc1N1CCCC1`
-0.23% (inactive)

Short answer please: inhibition, DNA repair protein RAD52 homolog (Homo sapiens) (UniProt P43351), entry `COc1c2ccoc2nc2c(OC)cccc12`
10.6% (inactive)

Request body: readout inhibition, system DNA repair protein RAD52 homolog (Homo sapiens) (UniProt P43351), query `CC1(C)CC(=O)c2cn3c(nc2C1)nc1ccccc13` . Return the value.
-4.04% (inactive)

Param readout= inhibition; system= DNA repair protein RAD52 homolog (Homo sapiens) (UniProt P43351); entry= O=C(c1ccc(-c2ccccc2)c(F)c1)C1CCCN(C(=O)c2cncs2)C1 (stereo not given) ; returns value.
-5.72% (inactive)

Provide the documented inhibition with DNA repair protein RAD52 homolog (Homo sapiens) (UniProt P43351) as the system for `CCn1c(O)c(/C=C2\C=Nc3ccccc32)sc1=O`
8.58% (inactive)

Param readout = inhibition; param system = DNA repair protein RAD52 homolog (Homo sapiens) (UniProt P43351); param query = `COC(=O)c1sccc1NC(=O)Nc1ccccc1F` ; response: value
-4.3% (inactive)

Checklist item: inhibition tested on DNA repair protein RAD52 homolog (Homo sapiens) (UniProt P43351), entry `COc1cc2cc(C(=O)O)n(C)c2c(OC)c1OC` , value?
-3.98% (inactive)

* * *

Entries annotated with measured inhibition
target: DNA repair protein RAD52 homolog (Homo sapiens) (UniProt P43351); test: inhibition of RAD52-mediated strand annealing – biochemical, FRET, single point, primary screen (AID 651660); conditions: Recombinant RAD52 ssDNA annealing, FRET fluorescence, 30 min; at 18.7 µM; stronger effect = higher value;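 further: 0% = median of neutral control wells and 100% = median of positive control wells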
In all, about 1,900 compounds went through this assay and about 15 (0.8%) were called active. Shown is part of a subset that was picked to be rich in actives.
Just the number in %, nothing appended.

Solved cases below.
| molecule | inhibition [%] |
| --- | --- |
| COc1cc(C2NCCc3c2[nH]c2ccccc32)ccc1OC(C)C (stereo not drawn) | 1.55 |
| CN1C(=O)C(O)(CC(=O)/C=C/C=C/c2ccccc2)c2ccccc21 (stereo not drawn) | -13.6 |

Using the record for `Cc1nc(N[C@@H](Cc2c[nH]c3ccccc23)C(=O)O)c2oc3ccccc3c2n1` , report its inhibition.
-19.8
